Ki values by entry
target: recombinant RORγ Ligand Binding Domain (LBD) protein (Homo sapiens (Human), UniProt P51449); experiment: Radio-Ligand RORγ Binding Assay (Assay 1); settings: competition with 25-hydroxy [26,27-3H]-cholesterol, SPA; Table 9; read-out: RORγ Binding Ki Range*
Sequence (P51449 269-508): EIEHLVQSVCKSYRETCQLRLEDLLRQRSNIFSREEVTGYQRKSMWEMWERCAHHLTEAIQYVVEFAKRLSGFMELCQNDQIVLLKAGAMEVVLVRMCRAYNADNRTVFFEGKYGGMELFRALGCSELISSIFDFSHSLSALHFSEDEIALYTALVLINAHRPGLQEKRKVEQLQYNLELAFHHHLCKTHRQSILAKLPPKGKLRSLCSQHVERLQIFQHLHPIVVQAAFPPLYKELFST

Some compounds with recorded Ki:
>>> data_value("CCS(=O)(=O)c1ccc(CC(=O)Nc2nc3c(s2)C(C)N(Cc2ccc(C#N)cc2)[C@H]3C(C)C)cc1 (stereo partly drawn)")
"< 100 nM"
>>> data_value("CCS(=O)(=O)c1ccc(CC(=O)Nc2nc3c(s2)CN(C[C@@H]2CC[C@H](C(F)(F)F)O2)[C@H]3C(C)C)nc1 (single isomer, unassigned)")
"< 100 nM"
>>> data_value("CC(C)[C@@H]1c2nc(NC(=O)Cc3ccc(S(C)(=O)=O)cc3)sc2CN1[C@H](C)c1ccc(C(F)(F)F)cc1 (single isomer, unassigned)")
"100 to 1000 nM"

Q) # Ki lookup, item CCS(=O)(=O)c1ccc(CNC(=O)c2nc3c(s2)CN(Cc2ccc4c(c2)OC(F)(F)O4)[C@H]3C(C)C)nc1
A) < 100 nM

Q) // next record CCS(=O)(=O)c1ccc(CC(=O)Nc2nc3c(s2)CN(Cc2ccc(C(F)(F)F)cn2)[C@H]3C(C)C)nc1
A) < 100 nM

Q) // next record CCOC(=O)c1cnc(N2Cc3sc(C(=O)NCc4ccc(S(=O)(=O)CC)cc4)nc3[C@@H]2C(C)C)nc1C(F)(F)F
A) > 1000 nM

Q) // next record CC(C)[C@@H]1c2nc(NC(=O)Cc3ccc(S(C)(=O)=O)cc3)sc2CN1C(C)c1ccc(C#N)cc1 (stereo partly drawn)
A) 100 to 1000 nM

Q) // next record Cc1nc(C(F)(F)F)ccc1CN1Cc2sc(NC(=O)Cc3ccc(S(C)(=O)=O)cc3F)nc2[C@@H]1C(C)C
A) < 100 nM

Q) // next record CCS(=O)(=O)c1ccc(CNC(=O)c2nc3c(s2)CN(CC2CN(C(=O)OC(C)(C)C)CCO2)[C@H]3C(C)C)cc1 (stereo partly drawn)
A) < 100 nM

Q) // next record CCS(=O)(=O)c1ccc(CC(=O)Nc2nc3c(s2)CN(C[C@H]2CC[C@@H](C(F)(F)F)NC2)[C@H]3C(C)C)cc1 (single isomer, unassigned)
A) < 100 nM

Q) // next record CC(C)c1ccc(CN2Cc3sc(NC(=O)Cc4ccc(S(C)(=O)=O)cc4)nc3[C@H]2C(C)C)cc1
A) < 100 nM

Q) // next record CC(C)[C@H]1c2nc(C(=O)NCc3ccc(S(C)(=O)=O)cc3)sc2CN1Cc1cnc(C(F)(F)F)nc1
A) 100 to 1000 nM

----------
target: recombinant RORγ Ligand Binding Domain (LBD) protein (Homo sapiens (Human), UniProt P51449); assay: Radio-Ligand RORγ Binding Assay (Assay 1); conditions: competition with 25-hydroxy [26,27-3H]-cholesterol, SPA; Table 9; read-out: RORγ Binding Ki Range*
Ki values by entry

Q) # Ki lookup, item CCS(=O)(=O)c1ccc(CC(=O)Nc2nc3c(s2)CN(C[C@H]2CCCCO2)[C@H]3C(C)C)cc1 (relative stereo)
A) < 0.1 µM

Q) // next record CC(C)[C@H]1c2nc(NC(=O)Cc3ccc(C(N)=O)cc3)sc2CN1Cc1ccc(Cl)cc1
A) < 0.1 µM

----------
biological target: recombinant RORγ Ligand Binding Domain (LBD) protein (Homo sapiens (Human), UniProt P51449); test: Radio-Ligand RORγ Binding Assay (Assay 1); settings: competition with 25-hydroxy [26,27-3H]-cholesterol, SPA; Table 9; read-out: RORγ Binding Ki Range*
measurement.name: Ki

Some compounds with recorded Ki:
>>> data_value("CCS(=O)(=O)c1ccc(CC(=O)Nc2nc3c(s2)CN(C[C@@H]2CC[C@H](C(F)(F)F)OC2)[C@H]3C(C)C)cc1 (relative stereo)")
"< 100 nM"
>>> data_value("CC(C)[C@H]1c2nc(C(=O)NCc3ccc(S(C)(=O)=O)cc3)sc2CN1Cc1ccc(C#N)c(F)c1")
"< 100 nM"

Q) # Ki lookup, item CC(C)[C@H]1c2nc(NC(=O)Cc3ccc(S(C)(=O)=O)cc3)sc2CN1Cc1ccc(-c2nnnn2C)cc1
A) < 100 nM

Q) // next record CCS(=O)(=O)c1ccc(CC(=O)Nc2nc3c(s2)CN(c2ncc(C(F)(F)F)cn2)C3(C)C)cc1
A) 100 to 1000 nM

----------
target: full-length RORγt in Jurkat cells (Homo sapiens (Human), UniProt P51449); experiment: RORγt 5xRORE Assay in Jurkat Cells (Assay 2); format: cell-based; details: Nanoluc luciferase reporter, 16-18 hrs, Table 9, read-out: RORγt5X IC50 Range*
Sequence (P51449 other isoform, or with tags, fused parts or gaps): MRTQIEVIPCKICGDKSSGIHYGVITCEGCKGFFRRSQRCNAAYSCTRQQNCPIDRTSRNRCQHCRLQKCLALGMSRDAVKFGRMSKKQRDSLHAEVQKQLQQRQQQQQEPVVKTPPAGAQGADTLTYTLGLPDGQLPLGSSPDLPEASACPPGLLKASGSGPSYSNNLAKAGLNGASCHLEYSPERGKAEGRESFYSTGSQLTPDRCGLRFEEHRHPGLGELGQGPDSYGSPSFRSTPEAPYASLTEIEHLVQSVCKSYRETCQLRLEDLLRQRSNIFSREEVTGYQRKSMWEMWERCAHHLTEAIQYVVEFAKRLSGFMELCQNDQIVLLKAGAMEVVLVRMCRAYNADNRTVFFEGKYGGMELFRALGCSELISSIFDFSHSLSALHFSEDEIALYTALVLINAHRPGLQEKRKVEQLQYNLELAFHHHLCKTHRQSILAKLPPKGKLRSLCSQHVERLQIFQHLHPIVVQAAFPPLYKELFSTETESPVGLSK
pIC50: −log10 of the molar value.
pIC50 values by entry

>>> data_value("CC[C@@H]1c2nc(NC(=O)Cc3ccc(S(=O)(=O)CC)cc3)sc2CN1Cc1ccc2c(c1)OCO2")
"< 6.00"
>>> data_value("CCS(=O)(=O)c1ccc(CC(=O)Nc2nc3c(s2)CN(Cc2ccc(Cl)cc2)[C@H]3C(C)C)c(C#N)c1")
"> 7.00"
>>> data_value("CC(C)[C@@H]1c2nc(NC(=O)Cc3ccc(S(C)(=O)=O)cc3)sc2CN1Cc1ccc(OC(F)(F)F)cc1")
"< 6.00"

Now for a further molecule.
Q) # pIC50 lookup, item CCS(=O)(=O)c1ccc(CC(=O)Nc2nc3c(s2)CN(c2nccc(C4CC4)n2)[C@@H]3C(C)C)cc1
A) < 6.00

----------
target: recombinant RORγ Ligand Binding Domain (LBD) protein (Homo sapiens (Human), UniProt P51449); assay: Radio-Ligand RORγ Binding Assay (Assay 1); conditions: competition with 25-hydroxy [26,27-3H]-cholesterol, SPA; Table 9; read-out: RORγ Binding Ki Range*
pKi: −log10 of the molar value.
measurement.name: pKi

Some compounds with recorded pKi:
>>> data_value("CC(C)[C@@H]1c2nc(NC(=O)Cc3ccc(S(C)(=O)=O)cc3)sc2CN1[C@@H](C)c1ccc(C(F)(F)F)cc1 (single isomer, unassigned)")
"6.00 to 7.00"
>>> data_value("CCS(=O)(=O)c1ccc(CNC(=O)c2nc3c(s2)CN(c2nccc(C(F)(F)F)n2)[C@H]3C(C)C)cc1")
"6.00 to 7.00"
>>> data_value("CCS(=O)(=O)c1ccc(CC(=O)Nc2nc3c(s2)CN(C[C@H]2CC[C@H](C(=O)O)CC2)[C@H]3C(C)C)cc1")
"6.00 to 7.00"

Now for a further compound.
Q) # pKi lookup, item CC(C)[C@H]1c2nc(NS(=O)(=O)c3ccc(CC(=O)O)cc3)sc2CN1Cc1ccc(C#N)c(F)c1 [drawing 411]
A) > 7.00

----------
target: recombinant RORγ Ligand Binding Domain (LBD) protein (Homo sapiens (Human)); assay: Radio-Ligand RORγ Binding Assay (Assay 1); conditions: competition with 25-hydroxy [26,27-3H]-cholesterol, SPA; Table 9; read-out: RORγ Binding Ki Range*
pKi: −log10 of the molar value.
measurement.name: pKi

Some compounds with recorded pKi:
>>> data_value("CCS(=O)(=O)c1cnc(CC(=O)Nc2nc3c(s2)CN(Cc2ccc(C(F)(F)F)cc2)[C@H]3C(C)C)nc1")
"> 7.00"
>>> data_value("CCS(=O)(=O)c1ccc(CC(=O)Nc2nc3c(s2)CN([C@H](C)Cc2ccccc2)[C@H]3C(C)C)cc1")
"> 7.00"
>>> data_value("CC[C@@]1(C)c2nc(NC(=O)Cc3ccc(S(=O)(=O)CC)cc3)sc2CN1Cc1ccc(C#N)cc1")
"> 7.00"
>>> data_value("CCS(=O)(=O)c1ccc(CC(=O)Nc2nc3c(s2)CN(Cc2ccn(CC(F)(F)F)c(=O)c2)[C@H]3C(C)C)cc1")
"> 7.00"
>>> data_value("CCS(=O)(=O)c1ccc(CC(=O)Nc2nc3c(s2)CN([C@H](C)Cc2ccccc2C(F)(F)F)[C@@H]3C(C)C)cc1")
"> 7.00"
>>> data_value("CC(C)[C@H]1c2nc(NC(=O)Cc3ccc(S(C)(=O)=O)cc3)sc2CN1Cc1ncc(Cl)cc1F")
"6.00 to 7.00"
>>> data_value("CC(C)[C@H]1c2nc(C(=O)NCc3ccc(S(C)(=O)=O)cc3)sc2CN1Cc1ccc(F)cc1")
"> 7.00"
>>> data_value("CC(C)[C@H]1c2nc(NC(=O)Cc3ccc(-c4nnnn4C)cc3)sc2CN1Cc1ccc(Cl)cc1")
"6.00 to 7.00"
>>> data_value("CCS(=O)(=O)c1ccc(CC(=O)Nc2nc3c(s2)CN(C[C@@H]2CCCCO2)[C@H]3C(C)C)cc1 (relative stereo)")
"> 7.00"
>>> data_value("CC(C)[C@H]1c2nc(NC(=O)Cc3ccc(-c4nnn[nH]4)cc3)sc2CN1Cc1ccc(Cl)cc1")
"6.00 to 7.00"

Q) # pKi lookup, item CC(C)[C@H]1c2nc(NC(=O)Cc3ccc(S(C)(=O)=O)cc3)sc2CN1Cc1ccc(F)cc1
A) > 7.00

Q) // next record CCOC(=O)c1cnc(N2Cc3sc(NC(=O)Cc4ccc(S(=O)(=O)CC)cc4)nc3[C@@H]2C(C)C)nc1C(F)(F)F
A) > 7.00
